assay_overview: A quantitative high throughput screen for small molecules that induce DNA re-replication in MCF 10a normal breast cells. Note: nearly all actives have a fitted effect of over 50% in size.
condition_info: MCF 10A DNA re-replication, Hoechst nuclear intensity, 48 h; series mostly up to 46.1 µM
About 9,900 (2.8%) of roughly 350,000 compounds were called active. Inconclusive results (about 15%) are left out. Calls come from the whole dose curve; as a rule, active = well fitted activation curve with a large enough effect; inconclusive = small, poorly fitted or top-dose-only effect; inactive = no such curve, though single readings can be large or run the other way. The sample holds actives, similar compounds and a random draw of the others, so the mix is not that of the screen.
Could you please pick one outcome from this set? T (active), F (inactive)

compound | discrete_label
CCOC(=O)[C@H]1[C@H]2COc3cc(OC)ccc3[C@@H]2N2C(=O)CN(Cc3ccc(Cl)cc3)C(=O)[C@@]12C | F
Cc1nnc2n1N=C(c1ccccc1)CS2 | F

query: Could you please tell me the result logged for `CCN1CCN(CCNC(=O)c2ccc3c(c2)NC(=O)/C(=C\c2ccc(OC)c(OC)c2)S3)CC1` in this assay?
result: F

query: Also need `COc1ccc(-c2cc3ccc(OCc4nn[nH]n4)cc3oc2=O)cc1` , thanks.
result: F

query: Also need `O=C(OCCOc1ccccc1Cl)c1cc(S(=O)(=O)N2CCCCC2)ccc1N1CCOCC1` , thanks.
result: F

query: Also need `CN(C)CCCNC(=O)/C=C/c1ccc(OCc2c(F)cccc2Cl)cc1` , thanks.
result: T

query: Also need `O=c1oc2cc(O)ccc2cc1-c1ccc(F)cc1` , thanks.
result: T

query: Also need `CCN(C[C@H]1N[C@@](Cc2ccccc2)(C(=O)OC)[C@H]2C(=O)N(Cc3ccccc3)C(=O)[C@@H]12)C(=O)c1ccc(C)cc1` , thanks.
result: F

query: Also need `CC(C)(C)NS(=O)(=O)NC(=O)C1=C(N2CCCC2)COC1=O` , thanks.
result: F

query: Also need `COc1ccc(C)cc1S(=O)(=O)N1CCN(S(=O)(=O)c2cc(C(=O)O)ccc2C)CC1` , thanks.
result: F

query: Also need Cc1ccc(Nc2nnc(SC(C)C(=O)NC3CC3)s2)cc1 (centres undefined) , thanks.
result: F

query: Also need COc1ccc(CC(=O)NC(C)c2ccc(Cl)c(Cl)c2)cc1S(=O)(=O)N1CCOCC1 (centres undefined) , thanks.
result: F

query: Also need `Cc1ccc(S(=O)(=O)N2CCN(C(=O)c3cc(S(=O)(=O)N4CCOCC4)ccc3F)CC2)cc1` , thanks.
result: F

query: Also need `COCCCNC(=O)/C=C/c1ccc(OCc2c(F)cccc2Cl)cc1` , thanks.
result: F

query: Also need `Cc1ccc(C(=O)/C=C/c2c(C)nn(-c3ccccc3)c2Cl)cc1` , thanks.
result: T

query: Also need `c1ccc(COc2ccccc2CNCc2cccnc2)cc1` , thanks.
result: F

---

assay_overview: A quantitative high throughput screen for small molecules that induce DNA re-replication in MCF 10a normal breast cells. Note: nearly all actives have a fitted effect of over 50% in size.
condition_info: MCF 10A DNA re-replication, Hoechst nuclear intensity, 48 h; series mostly up to 46.1 µM
Among all 350,000 compounds or so, about 9,900 (2.8%) were called active. Roughly 15% stayed inconclusive and do not appear here. The call rests on the fitted dose curve; in most records, active means well fitted activation curve with a large enough effect; inconclusive means small, poorly fitted or top-dose-only effect; inactive means no such curve, though single readings can be large or run the other way. The entries come from a sample that favours actives as a whole.
Could you please pick one outcome from this set? yes (active), no (inactive)

Example results:
molecule | discrete_label
O=C(N/N=C/c1ccc2c(c1)OCO2)C(=O)N1CCCC1 | no
Cc1ccc(-c2nc3ccccc3[nH]2)cc1NC(=O)c1sc2ccccc2c1Cl | yes
Cc1cccc(NC(=O)CN2CCN(C(=O)C3CCN(C(=O)/C=C/c4ccccc4)CC3)CC2)c1C | no

query: Could you please tell me the result logged for `CCOC(=O)N1CCN(C(=O)c2ccc(S(=O)(=O)Nc3cccc(C(F)(F)F)c3)cc2)CC1` in this assay?
result: no

query: Also need `CC(C)(C)OC(=O)C[C@@H]1C/C=C\C[C@@H](CC(=O)NCCO)C(=O)N[C@H](Cc2c[nH]c3ccccc23)COC1=O` , thanks.
result: no

query: Also need `Cc1oc2c(F)c(F)c(F)c(F)c2c1S(=O)(=O)Nc1cccc(C(F)(F)F)c1` , thanks.
result: yes

query: Also need Cc1cccc(NC(=O)c2ccc3c(=O)n(CC4CCCO4)c(=S)[nH]c3c2)c1 (stereo not drawn) , thanks.
result: no

query: Also need `O=C(NCc1ccccc1)c1ccc(S(=O)(=O)Nc2cccc(C(F)(F)F)c2)cc1` , thanks.
result: no

---

assay_overview: A quantitative high throughput screen for small molecules that induce DNA re-replication in MCF 10a normal breast cells. Note: nearly all actives have a fitted effect of over 50% in size. Note: potency is the fitted concentration of half-maximal effect.
condition_info: MCF 10A DNA re-replication, Hoechst nuclear intensity, 48 h; series mostly up to 46.1 µM
The whole screen tested about 350,000 compounds, of which about 9,900 (2.8%) were called active. Another 15% or so got no clear call; they are omitted. For the sample, actives were picked, then their nearest neighbours and some compounds at random.
measured_parameter: Potency

molecule | Potency
NC(N)=Nc1nc(-c2ccccc2)c2cc(Cl)ccc2n1 | inactive
O=C(Nc1cc(C(F)(F)F)ccc1Cl)C(=O)N1CCCCC1 | inactive
CCOC(=O)c1sc(NC(=O)CSc2nnc(-c3ccco3)o2)c(C(=O)OCC)c1C | inactive
COc1ccc(S(=O)(=O)N2CCN(CC(=O)N3c4ccccc4CC3C)CC2)cc1OC (centres undefined) | inactive
CCCCSc1nc2ccccc2[nH]1 | inactive

query: Value lookup for Potency; key = `CC(=O)N1CCc2ccc(N)cc21`
result: inactive

query: Also need `COc1ccccc1CSc1ncc(-c2ccc([N+](=O)[O-])cc2)[nH]1` , thanks.
result: 11.6 µM (active)

query: Also need `O=C1NC[C@@H](c2ccccc2)OC(=O)[C@H](Cc2ccc(F)cc2)CC/C=C/C[C@H]1CC(=O)N(CCO)Cc1ccccc1` , thanks.
result: 18.4 µM (active)

query: Also need `CCOC(=O)/C(C#N)=C/c1ccc(OCC(=O)Nc2ccccc2)c(OC)c1` , thanks.
result: inactive

query: Also need `O=C1OC[C@@H]2CCCN2C(=O)[C@H](CC(=O)N(CCO)Cc2ccccc2)C/C=C\CC[C@@H]1Cc1ccc(F)cc1` , thanks.
result: inactive

query: Also need `C=CC[C@H](CC(=O)OC(C)(C)C)C(=O)OC[C@H]1CCCN1C(=O)[C@H](CC=C)CC(=O)N(CCO)Cc1ccccc1` , thanks.
result: inactive

---

assay_overview: A quantitative high throughput screen for small molecules that induce DNA re-replication in MCF 10a normal breast cells. Note: nearly all actives have a fitted effect of over 50% in size.
condition_info: MCF 10A DNA re-replication, Hoechst nuclear intensity, 48 h; series mostly up to 46.1 µM
Screen size: about 350,000 compounds; about 9,900 (2.8%) were called active. About 15% were inconclusive and are not listed. Calls follow the shape of the dose curve; as a rule, active = well fitted activation curve with a large enough effect; inconclusive = small, poorly fitted or top-dose-only effect; inactive = no such curve, though single readings can be large or run the other way. What follows is part of a selection rich in actives, with near analogues and random picks from the rest.
Could you please pick one outcome from this set? 1 = active, -1 = inactive

Example results:
molecule | discrete_label
O=C(CC1SC(N2CCOCC2)=NC1=O)Nc1ccccc1F (stereo not drawn) | -1
Cn1cc(C2OC(=O)c3ccccc32)c2ccccc21 (stereo not drawn) | -1

# next molecule below
query: Could you please tell me the result logged for `Nc1nc(-c2sc3nc4c(cc3c2N)CCCC4)nc(N2CCOCC2)n1` in this assay?
result: 1

---

assay_overview: A quantitative high throughput screen for small molecules that induce DNA re-replication in MCF 10a normal breast cells. Note: nearly all actives have a fitted effect of over 50% in size. Note: potency is the fitted concentration of half-maximal effect.
condition_info: MCF 10A DNA re-replication, Hoechst nuclear intensity, 48 h; series mostly up to 46.1 µM
In all, about 350,000 compounds went through this assay and about 9,900 (2.8%) were called active. Inconclusive results (about 15%) are left out. This is one part of a sample in which actives are shown more often than they occur.
measured_parameter: Potency

structure_smiles | measured_parameter | result
Cc1ccc(NS(=O)(=O)c2ccc(C)c(NC(=O)COc3ccc4ccccc4c3)c2)c(C)c1 | Potency | inactive
CCn1nc(C)c(NC(=O)/C=C/c2ccc(OC)c(COc3ccc(Br)cc3)c2)c1C | Potency | 8.2 µM (active)
C/C=C/c1ccc(OCC(=O)OCC(=O)Nc2c(C)nn(-c3ccccc3)c2C)c(OC)c1 | Potency | inactive

---

assay_overview: A quantitative high throughput screen for small molecules that induce DNA re-replication in MCF 10a normal breast cells. Note: nearly all actives have a fitted effect of over 50% in size.
condition_info: MCF 10A DNA re-replication, Hoechst nuclear intensity, 48 h; series mostly up to 46.1 µM
In all, about 350,000 compounds went through this assay and about 9,900 (2.8%) were called active. Roughly 15% stayed inconclusive and do not appear here. Calls follow the shape of the dose curve; as a rule, active = well fitted activation curve with a large enough effect; inconclusive = small, poorly fitted or top-dose-only effect; inactive = no such curve, though single readings can be large or run the other way. Shown is part of a subset that was picked to be rich in actives.
Could you please pick one outcome from this set? 1.0 (active), 0.0 (inactive)

compound | discrete_label
CN(CC(=O)O)C(=O)c1ccccc1 | 0.0

query: Could you please tell me the result logged for `CC(C)(C)[C@H]1C=C(C(=O)NCc2ccccc2)O[C@@H](OCc2ccc(CO)cc2)C1` in this assay?
result: 0.0

query: Also need O=C(C1Cc2ccccc2CN1C(=O)c1ccco1)N1CCN(c2ccccc2)CC1 (configuration not stated) , thanks.
result: 0.0

query: Also need `COc1ccc(-c2cc3ncccc3cn2)cc1` , thanks.
result: 0.0

Hello, the source for this data is PubChem BioAssay AID624296, in case you need it.
